Biological target: PH ([325-451]ASAP1) (Mus musculus)
Sequence (Q9QWY8 325-451): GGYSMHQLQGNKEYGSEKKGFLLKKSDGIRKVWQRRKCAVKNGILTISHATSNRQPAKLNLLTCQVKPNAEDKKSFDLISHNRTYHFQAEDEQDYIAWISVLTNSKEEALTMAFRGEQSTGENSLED
quantity_measured: pKd
Note on units: pKd is unitless, being -log10 of a concentration expressed in mol/L.

### Prompt I have this molecule here, `O=P(O)(O)O[C@@H]1[C@H](O)[C@H](O)[C@@H](OP(=O)(O)O)[C@H](OP(=O)(O)O)[C@H]1O` , and I need its recorded pKd.
### Response 4.12
